target: Luciferin 4-monooxygenase (Photuris pensylvanica); test: Secondary Assay for Luciferase (Kinase-Glo TM) Inhibition Counterscreen; conditions: Kinase-Glo luciferase enzyme, luminescence; series mostly up to 58.1 µM
Results filed as inconclusive are left out. Active and inactive are the calls of the source. The call rests on the fitted dose curve; in most records, active means well fitted inhibition curve with a large enough effect; inconclusive means small, poorly fitted or top-dose-only effect; inactive means flat fitted curve, though single readings scatter.
Outcomes: active, inactive

CC(=O)N1CCc2cc(S(=O)(=O)Nc3ccc(C)c(C)c3)ccc21    inactive
O=S(=O)(c1ccc2c(c1)OCCO2)N1CCN(S(=O)(=O)c2c(F)cccc2F)CC1    inactive
Cc1ccc(NS(=O)(=O)c2cc3c(cc2-c2ccccc2)NC(=O)CO3)cc1C    inactive
Cc1ccc(S(=O)(=O)/N=C2/C=C(Sc3ncn[nH]3)C(=O)c3ccccc32)cc1    inactive
Cc1cc(O)c(-c2cc(O)c(C)cc2O)cc1O    inactive
c1ccc2nc(-c3nc4ccccc4[nH]3)ccc2c1    active
Cc1cc2c(s1)c1cnn(Cc3ccccc3F)c(=O)c1n2C    inactive
O=C1c2ccccc2C(=O)N1Cc1cccnc1    inactive
Cc1nc(-c2ccc(S(=O)(=O)Nc3ccc(C)c(C)c3)s2)cs1    inactive
Cc1ccc(NS(=O)(=O)c2ccc3c(c2)CCC(C)(C)O3)cc1C    inactive

====

biological target: Luciferin 4-monooxygenase (Photuris pensylvanica); assay: Secondary Assay for Luciferase (Kinase-Glo TM) Inhibition Counterscreen; settings: Kinase-Glo luciferase enzyme, luminescence; series mostly up to 58.1 µM
Results filed as inconclusive are left out. Active and inactive are the calls of the source. Calls follow the shape of the dose curve; as a rule, active = well fitted inhibition curve with a large enough effect; inconclusive = small, poorly fitted or top-dose-only effect; inactive = flat fitted curve, though single readings scatter.
Outcomes: class 1 (active), class 0 (inactive)

Cc1cc(N2C(=O)c3ccccc3C2=O)no1    class 0
Cc1ccc2c(c1)c1ccc3c(c1n2C)C(=O)C=CC3=O    class 0
COc1cc(Cl)c(C)cc1NC(=O)COC(=O)c1cc[n+]([O-])cc1    class 0
COc1cccc(N2C(=O)c3ccccc3C2=O)c1    class 0
Cc1ccc(NS(=O)(=O)c2ccc3ccccc3c2)cc1C    class 0
O=S1(=O)N=C(Oc2ccccc2)c2ccccc21    class 0
O=C1CCc2cc(S(=O)(=O)Nc3ccc(Cl)cc3)ccc2N1    class 0
Cc1c(C(=O)NC(=S)Nc2ccc(NC(=O)c3cccs3)cc2)oc2ccccc12    class 0
O=C1CCc2cc(S(=O)(=O)Nc3cccnc3)ccc2N1    class 0
O=S1(=O)N=C(Oc2ccc(Cl)cc2)c2ccccc21    class 0
O=C1CCc2cc(S(=O)(=O)Nc3cccc(C(F)(F)F)c3)ccc2N1    class 0
O=CN/C=C/c1cc(O)ccc1O    class 0
COc1cccc(OC2=NS(=O)(=O)c3ccccc32)c1    class 0
Cc1ccc(N2C(=O)c3ccccc3C2O)nc1 (stereo not given)    class 1
Nc1ncnc2c1ncn2C1OC(COP(=O)(O)O)C(O)C1O (stereo not given)    class 1
O=C1c2ccccc2C(=O)N1c1nccs1    class 0
N/C(=N\OC(=O)c1ccccc1)c1ccccn1    class 1
O=C1CCc2cc(S(=O)(=O)Nc3ccncc3)ccc2N1    class 0
Cn1c2cc(S(C)=O)sc2c2cnn(Cc3cccc(N)c3)c(=O)c21 (stereo not given)    class 0
O=C1c2ccccc2-c2nnc(-c3ccccc3)cc21    class 1
O=C1CCc2cc(S(=O)(=O)Nc3ccccn3)ccc2N1    class 0
Cc1ccccc1NS(=O)(=O)c1ccc2c(c1)CCC(=O)N2    class 0
Nc1ccc2nc(-c3ccccc3)sc2c1    class 1
COc1ccc(N2C(=O)c3ccccc3C2=O)cc1    class 0
COc1ccccc1NS(=O)(=O)c1ccc2c(c1)CCC(=O)N2    class 0

Values compiled from PubChem BioAssay AID2530.
